# PROCEDURE TEXT: Tmax in Wistar rat kidney at 30 mg/kg, po by HPLC analysis
# Assay type: ADME, organism-based
TEST READOUT: Tmax (h)
State the answer as a number, implicitly in h.

The measured Tmax associated with CCCCC1=NC2(CCCC2)C(=O)N1Cc1ccc2c(ccn2-c2ccccc2-c2nnn[nH]2)c1 reads 2

---

# PROCEDURE TEXT: Cmax in Wistar rat lung at 15 mg/kg, po by HPLC analysis
# Type: ADME, organism-based
# Parameters: dose 15 mg/kg, route oral
TEST READOUT: Cmax

# compound CCCCC1=NC2(CCCC2)C(=O)N1Cc1ccc2c(ccn2-c2ccccc2-c2nnn[nH]2)c1 ; its Cmax = 369 ng/mL
